# Species on record: Homo sapiens
# PROCEDURE TEXT: Selectivity ratio for alphaV-beta5 over alphaV-beta3 integrins

- MOLECULE: "N=C(N)Nc1cccc(-c2ccc(C(=O)NC[C@H](NS(=O)(=O)c3ccccc3)C(=O)O)s2)c1.O=C(O)C(F)(F)F"
  Ratio: 33
- MOLECULE: "N=C(N)NCc1cccc(-c2ccc(C(=O)NC[C@H](NS(=O)(=O)c3ccccc3)C(=O)O)s2)c1.O=C(O)C(F)(F)F"
  Ratio: 97
- MOLECULE: "Cc1cc(C)c(S(=O)(=O)N[C@@H](CNC(=O)c2ccc(-c3cccc(CN=C(N)N)c3)s2)C(=O)O)c(C)c1.O=C(O)C(F)(F)F"
  Ratio: 1
- MOLECULE: "Cc1cc(C)c(S(=O)(=O)N[C@@H](CNC(=O)c2ccc(-c3cccc(NC(=N)N)c3)s2)C(=O)O)c(C)c1"
  Ratio: 2720

###

# SYSTEM UNDER TEST: Integrin alpha-V/beta-3 (Homo sapiens, UniProt P05106+P06756)
# Sequence (P05106 27-788 limits assumed): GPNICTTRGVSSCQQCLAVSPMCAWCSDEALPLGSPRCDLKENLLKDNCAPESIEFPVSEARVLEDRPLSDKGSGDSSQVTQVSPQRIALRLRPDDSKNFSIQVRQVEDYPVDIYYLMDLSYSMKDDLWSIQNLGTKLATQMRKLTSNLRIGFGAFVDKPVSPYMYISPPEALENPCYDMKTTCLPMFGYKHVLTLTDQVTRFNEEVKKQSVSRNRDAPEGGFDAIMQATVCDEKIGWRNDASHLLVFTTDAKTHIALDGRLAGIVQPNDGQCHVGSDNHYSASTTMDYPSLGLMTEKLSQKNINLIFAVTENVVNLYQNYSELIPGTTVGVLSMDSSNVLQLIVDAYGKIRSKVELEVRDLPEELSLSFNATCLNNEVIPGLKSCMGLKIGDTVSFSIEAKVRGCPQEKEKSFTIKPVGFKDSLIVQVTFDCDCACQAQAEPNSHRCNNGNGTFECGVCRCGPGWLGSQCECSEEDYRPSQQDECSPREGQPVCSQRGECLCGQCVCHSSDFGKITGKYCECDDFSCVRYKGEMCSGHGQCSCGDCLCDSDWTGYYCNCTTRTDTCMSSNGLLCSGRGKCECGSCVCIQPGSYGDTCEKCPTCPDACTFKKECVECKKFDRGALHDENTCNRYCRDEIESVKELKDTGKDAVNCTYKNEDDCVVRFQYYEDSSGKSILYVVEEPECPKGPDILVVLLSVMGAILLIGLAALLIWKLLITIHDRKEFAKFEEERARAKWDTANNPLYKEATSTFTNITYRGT
# Sequence (P06756 31-889 limits assumed): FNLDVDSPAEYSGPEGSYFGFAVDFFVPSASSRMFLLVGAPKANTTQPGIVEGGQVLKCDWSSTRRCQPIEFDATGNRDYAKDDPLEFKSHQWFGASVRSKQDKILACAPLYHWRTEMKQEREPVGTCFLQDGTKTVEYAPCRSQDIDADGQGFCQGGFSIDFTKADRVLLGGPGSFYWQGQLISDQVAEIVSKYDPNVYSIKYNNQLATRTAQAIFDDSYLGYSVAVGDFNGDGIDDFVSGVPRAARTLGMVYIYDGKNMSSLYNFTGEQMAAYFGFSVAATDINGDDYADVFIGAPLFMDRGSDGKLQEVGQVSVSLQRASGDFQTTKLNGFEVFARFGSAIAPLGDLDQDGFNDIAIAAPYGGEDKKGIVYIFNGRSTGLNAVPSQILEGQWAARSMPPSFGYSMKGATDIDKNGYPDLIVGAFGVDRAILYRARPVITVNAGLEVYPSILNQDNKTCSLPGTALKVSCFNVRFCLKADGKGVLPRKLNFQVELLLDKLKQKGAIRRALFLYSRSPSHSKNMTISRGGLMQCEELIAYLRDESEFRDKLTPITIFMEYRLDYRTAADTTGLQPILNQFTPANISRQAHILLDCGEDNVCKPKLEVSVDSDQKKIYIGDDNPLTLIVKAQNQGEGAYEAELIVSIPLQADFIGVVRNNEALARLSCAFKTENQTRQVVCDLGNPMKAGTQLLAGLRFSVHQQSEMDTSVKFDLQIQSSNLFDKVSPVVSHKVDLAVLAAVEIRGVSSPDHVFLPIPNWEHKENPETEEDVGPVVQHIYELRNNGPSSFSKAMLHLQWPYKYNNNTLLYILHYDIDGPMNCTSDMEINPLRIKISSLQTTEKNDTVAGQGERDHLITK
# Sequence (P06756 891-1048 limits assumed): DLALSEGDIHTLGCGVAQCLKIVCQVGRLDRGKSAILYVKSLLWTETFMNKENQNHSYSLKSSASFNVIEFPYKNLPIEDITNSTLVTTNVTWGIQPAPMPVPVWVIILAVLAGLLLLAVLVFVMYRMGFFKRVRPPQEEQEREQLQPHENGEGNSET
# PROCEDURE TEXT: Inhibition of fibrinogen binding to integrin alphaV-beta3 receptor
# Type: protein-complex assay
pIC50: −log10 of the molar value.

- MOLECULE: "Cc1cc(C)c(S(=O)(=O)N[C@@H](CNC(=O)c2ccc(-c3cccc(NC(=N)N)c3)s2)C(=O)O)c(C)c1"
  pIC50: 8.85
- MOLECULE: "N=C(N)Nc1cccc(-c2ccc(C(=O)NC[C@H](NS(=O)(=O)c3ccccc3)C(=O)O)s2)c1.O=C(O)C(F)(F)F"
  pIC50: 9.00
- MOLECULE: "N=C(N)Nc1ccc(-c2ccc(C(=O)NC[C@H](NS(=O)(=O)c3ccccc3)C(=O)O)s2)cc1"
  pIC50: 7.15
- MOLECULE: "N=C(N)NCc1ccc(-c2ccc(C(=O)NC[C@H](NS(=O)(=O)c3ccccc3)C(=O)O)s2)cc1"
  pIC50: 8.68
- MOLECULE: "N=C(N)NCc1cccc(-c2ccc(C(=O)NC[C@H](NS(=O)(=O)c3ccccc3)C(=O)O)s2)c1.O=C(O)C(F)(F)F"
  pIC50: 8.66
- MOLECULE: "N=C(N)Nc1ccccc1-c1ccc(C(=O)NC[C@H](NS(=O)(=O)c2ccccc2)C(=O)O)s1"
  pIC50: 5.26
- MOLECULE: "Cc1cc(C)c(S(=O)(=O)N[C@@H](CNC(=O)c2ccc(-c3cccc(CN=C(N)N)c3)s2)C(=O)O)c(C)c1.O=C(O)C(F)(F)F"
  pIC50: 8.47
- MOLECULE: "N=C(N)NCc1ccccc1-c1ccc(C(=O)NC[C@H](NS(=O)(=O)c2ccccc2)C(=O)O)s1"
  pIC50: 10.40

###

# SYSTEM UNDER TEST: Integrin alpha-V/beta-3 (Homo sapiens, UniProt P05106+P06756)
# PROCEDURE TEXT: Inhibition of fibrinogen binding to K562 cells expressing integrin alphaV-beta3
# Assay type: cell-based
The entries below are paired with their reported IC50.

- MOLECULE: "N=C(N)NCc1ccccc1-c1ccc(C(=O)NC[C@H](NS(=O)(=O)c2ccccc2)C(=O)O)s1"
  IC50: "21 nM"
- MOLECULE: "N=C(N)Nc1ccccc1-c1ccc(C(=O)NC[C@H](NS(=O)(=O)c2ccccc2)C(=O)O)s1"
  IC50: "5330 nM"
- MOLECULE: "Cc1cc(C)c(S(=O)(=O)N[C@@H](CNC(=O)c2ccc(-c3cccc(CN=C(N)N)c3)s2)C(=O)O)c(C)c1.O=C(O)C(F)(F)F"
  IC50: "11 nM"
- MOLECULE: "N=C(N)Nc1cccc(-c2ccc(C(=O)NC[C@H](NS(=O)(=O)c3ccccc3)C(=O)O)s2)c1.O=C(O)C(F)(F)F"
  IC50: "0.19 nM"
- MOLECULE: "Cc1cc(C)c(S(=O)(=O)N[C@@H](CNC(=O)c2ccc(-c3cccc(NC(=N)N)c3)s2)C(=O)O)c(C)c1"
  IC50: "0.00092 nM"
- MOLECULE: "N=C(N)NCc1cccc(-c2ccc(C(=O)NC[C@H](NS(=O)(=O)c3ccccc3)C(=O)O)s2)c1.O=C(O)C(F)(F)F"
  IC50: "0.74 nM"
- MOLECULE: "N=C(N)NCc1ccc(-c2ccc(C(=O)NC[C@H](NS(=O)(=O)c3ccccc3)C(=O)O)s2)cc1"
  IC50: "730 nM"
- MOLECULE: "N=C(N)Nc1ccc(-c2ccc(C(=O)NC[C@H](NS(=O)(=O)c3ccccc3)C(=O)O)s2)cc1"
  IC50: "3790 nM"

###

Here, each record is paired with measured IC50 data.
# SYSTEM UNDER TEST: Integrin alpha-5/beta-1 (Homo sapiens, UniProt P05556+P08648)
# Sequence (P05556 21-798 limits assumed): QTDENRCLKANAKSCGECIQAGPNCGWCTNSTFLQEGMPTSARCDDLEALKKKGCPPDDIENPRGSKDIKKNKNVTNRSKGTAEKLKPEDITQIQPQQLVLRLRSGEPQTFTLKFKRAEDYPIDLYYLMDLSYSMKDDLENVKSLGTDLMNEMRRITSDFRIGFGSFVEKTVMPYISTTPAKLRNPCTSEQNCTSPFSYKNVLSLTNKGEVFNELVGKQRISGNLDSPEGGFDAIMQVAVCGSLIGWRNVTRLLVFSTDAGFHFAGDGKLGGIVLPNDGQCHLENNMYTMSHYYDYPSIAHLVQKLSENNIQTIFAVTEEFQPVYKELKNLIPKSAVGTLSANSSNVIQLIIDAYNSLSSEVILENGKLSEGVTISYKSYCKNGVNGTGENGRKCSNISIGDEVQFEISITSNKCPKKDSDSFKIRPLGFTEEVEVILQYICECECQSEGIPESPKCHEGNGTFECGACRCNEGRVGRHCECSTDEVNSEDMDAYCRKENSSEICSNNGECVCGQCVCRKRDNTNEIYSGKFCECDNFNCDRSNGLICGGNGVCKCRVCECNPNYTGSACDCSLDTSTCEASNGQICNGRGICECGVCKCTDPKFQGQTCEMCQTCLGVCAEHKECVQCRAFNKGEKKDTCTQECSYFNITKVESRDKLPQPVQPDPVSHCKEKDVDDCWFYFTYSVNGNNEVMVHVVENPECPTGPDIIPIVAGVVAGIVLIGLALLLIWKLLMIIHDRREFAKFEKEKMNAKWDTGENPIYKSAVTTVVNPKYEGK
# Sequence (P08648 42-894 limits assumed): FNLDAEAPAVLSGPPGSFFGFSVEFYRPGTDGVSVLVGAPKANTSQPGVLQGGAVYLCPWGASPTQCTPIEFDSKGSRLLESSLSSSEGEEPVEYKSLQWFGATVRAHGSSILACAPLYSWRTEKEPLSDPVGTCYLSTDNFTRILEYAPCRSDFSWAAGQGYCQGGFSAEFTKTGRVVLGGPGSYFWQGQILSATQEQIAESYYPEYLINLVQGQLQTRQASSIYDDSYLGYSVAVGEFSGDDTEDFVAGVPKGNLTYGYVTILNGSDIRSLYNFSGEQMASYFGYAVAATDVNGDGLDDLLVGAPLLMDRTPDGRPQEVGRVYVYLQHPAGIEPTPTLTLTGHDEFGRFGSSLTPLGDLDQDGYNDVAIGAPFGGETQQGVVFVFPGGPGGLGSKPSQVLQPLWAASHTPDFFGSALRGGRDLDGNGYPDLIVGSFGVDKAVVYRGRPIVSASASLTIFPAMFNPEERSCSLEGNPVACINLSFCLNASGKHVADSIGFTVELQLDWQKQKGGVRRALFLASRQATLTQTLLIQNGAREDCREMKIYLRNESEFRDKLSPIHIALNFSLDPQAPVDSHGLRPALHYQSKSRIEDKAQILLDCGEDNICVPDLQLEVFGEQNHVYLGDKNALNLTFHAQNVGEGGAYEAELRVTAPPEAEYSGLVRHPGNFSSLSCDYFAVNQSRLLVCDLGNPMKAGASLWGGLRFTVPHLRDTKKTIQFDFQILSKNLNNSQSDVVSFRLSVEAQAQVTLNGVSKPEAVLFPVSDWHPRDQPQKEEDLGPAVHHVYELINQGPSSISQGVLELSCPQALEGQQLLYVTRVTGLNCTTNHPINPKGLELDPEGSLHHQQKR
# Sequence (P08648 895-1049 limits assumed): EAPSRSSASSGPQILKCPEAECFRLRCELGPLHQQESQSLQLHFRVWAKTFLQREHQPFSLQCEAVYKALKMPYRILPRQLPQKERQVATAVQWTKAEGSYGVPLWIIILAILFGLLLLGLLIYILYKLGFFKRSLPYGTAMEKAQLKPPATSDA
# PROCEDURE TEXT: Inhibition of fibronectin binding to K562 cells expressing integrin alpha5-beta1

- MOLECULE: "N=C(N)Nc1cccc(-c2ccc(C(=O)NC[C@H](NS(=O)(=O)c3ccccc3)C(=O)O)s2)c1.O=C(O)C(F)(F)F"
  IC50, nM: 95
- MOLECULE: "Cc1cc(C)c(S(=O)(=O)N[C@@H](CNC(=O)c2ccc(-c3cccc(NC(=N)N)c3)s2)C(=O)O)c(C)c1"
  IC50, nM: 26

###

# SYSTEM UNDER TEST: Integrin alpha-V/beta-3 and alpha-IIb/beta 3 (Homo sapiens) (UniProt P05106+P06756+P08514)
# PROCEDURE TEXT: Selectivity ratio for alphaIIb-beta3 over alphaV-beta3 integrins
# Format: protein assay
Below, each of the compounds is paired with its reported Ratio value.

- MOLECULE: "N=C(N)NCc1ccc(-c2ccc(C(=O)NC[C@H](NS(=O)(=O)c3ccccc3)C(=O)O)s2)cc1"
  Ratio: "< 0.1"
- MOLECULE: "N=C(N)Nc1cccc(-c2ccc(C(=O)NC[C@H](NS(=O)(=O)c3ccccc3)C(=O)O)s2)c1.O=C(O)C(F)(F)F"
  Ratio: 3
- MOLECULE: "N=C(N)Nc1ccccc1-c1ccc(C(=O)NC[C@H](NS(=O)(=O)c2ccccc2)C(=O)O)s1"
  Ratio: "< 0.1"
- MOLECULE: "N=C(N)Nc1ccc(-c2ccc(C(=O)NC[C@H](NS(=O)(=O)c3ccccc3)C(=O)O)s2)cc1"
  Ratio: "< 0.1"
- MOLECULE: "N=C(N)NCc1ccccc1-c1ccc(C(=O)NC[C@H](NS(=O)(=O)c2ccccc2)C(=O)O)s1"
  Ratio: "< 0.1"
- MOLECULE: "N=C(N)NCc1cccc(-c2ccc(C(=O)NC[C@H](NS(=O)(=O)c3ccccc3)C(=O)O)s2)c1.O=C(O)C(F)(F)F"
  Ratio: "< 0.5"
- MOLECULE: "Cc1cc(C)c(S(=O)(=O)N[C@@H](CNC(=O)c2ccc(-c3cccc(NC(=N)N)c3)s2)C(=O)O)c(C)c1"
  Ratio: 300
- MOLECULE: "Cc1cc(C)c(S(=O)(=O)N[C@@H](CNC(=O)c2ccc(-c3cccc(CN=C(N)N)c3)s2)C(=O)O)c(C)c1.O=C(O)C(F)(F)F"
  Ratio: "< 0.1"

###

Reported Ratio values for the following molecules.
# SYSTEM UNDER TEST: Fibronectin receptor (Integrin alpha-5/beta-1 and alpha-V/beta-3) (Homo sapiens) (UniProt P05106+P05556+P06756+P08648)
# PROCEDURE TEXT: Selectivity ratio for alpha5-beta1 and alphaV-beta3 integrins
# Format: protein-complex assay

- MOLECULE: "N=C(N)NCc1cccc(-c2ccc(C(=O)NC[C@H](NS(=O)(=O)c3ccccc3)C(=O)O)s2)c1.O=C(O)C(F)(F)F"
  Ratio: 864
- MOLECULE: "N=C(N)Nc1cccc(-c2ccc(C(=O)NC[C@H](NS(=O)(=O)c3ccccc3)C(=O)O)s2)c1.O=C(O)C(F)(F)F"
  Ratio: 500
- MOLECULE: "Cc1cc(C)c(S(=O)(=O)N[C@@H](CNC(=O)c2ccc(-c3cccc(CN=C(N)N)c3)s2)C(=O)O)c(C)c1.O=C(O)C(F)(F)F"
  Ratio: 6
- MOLECULE: "Cc1cc(C)c(S(=O)(=O)N[C@@H](CNC(=O)c2ccc(-c3cccc(NC(=N)N)c3)s2)C(=O)O)c(C)c1"
  Ratio: 28300

###

# SYSTEM UNDER TEST: Integrin alpha-IIb/beta-3 (Homo sapiens, UniProt P05106+P08514)
# Sequence (P05106 27-788 limits assumed): as the sequence (P05106 27-788 limits assumed) above
# Sequence (P08514 32-887 limits assumed): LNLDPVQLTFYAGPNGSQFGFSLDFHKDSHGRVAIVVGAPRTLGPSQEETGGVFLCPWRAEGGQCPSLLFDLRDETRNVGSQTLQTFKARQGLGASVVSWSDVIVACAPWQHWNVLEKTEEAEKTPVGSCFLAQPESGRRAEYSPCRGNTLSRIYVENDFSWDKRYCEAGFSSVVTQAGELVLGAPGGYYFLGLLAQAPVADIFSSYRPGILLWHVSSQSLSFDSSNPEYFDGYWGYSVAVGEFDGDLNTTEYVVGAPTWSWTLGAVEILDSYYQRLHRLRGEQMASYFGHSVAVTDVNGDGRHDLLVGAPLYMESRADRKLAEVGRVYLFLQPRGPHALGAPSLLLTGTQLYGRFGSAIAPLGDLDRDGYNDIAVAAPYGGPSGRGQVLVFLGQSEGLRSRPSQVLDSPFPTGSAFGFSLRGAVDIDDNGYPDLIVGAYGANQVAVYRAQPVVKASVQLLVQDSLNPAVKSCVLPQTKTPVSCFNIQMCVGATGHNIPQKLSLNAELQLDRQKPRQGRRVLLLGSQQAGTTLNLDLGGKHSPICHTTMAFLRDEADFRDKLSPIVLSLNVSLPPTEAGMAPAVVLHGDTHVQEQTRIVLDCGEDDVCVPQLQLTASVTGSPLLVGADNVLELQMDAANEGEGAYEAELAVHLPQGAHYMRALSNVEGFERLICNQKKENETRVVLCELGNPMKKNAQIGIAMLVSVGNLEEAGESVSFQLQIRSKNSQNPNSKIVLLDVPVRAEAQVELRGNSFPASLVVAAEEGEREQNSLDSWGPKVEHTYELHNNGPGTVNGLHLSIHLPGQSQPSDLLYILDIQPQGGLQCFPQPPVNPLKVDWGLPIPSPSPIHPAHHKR
# Sequence (P08514 891-1039 limits assumed): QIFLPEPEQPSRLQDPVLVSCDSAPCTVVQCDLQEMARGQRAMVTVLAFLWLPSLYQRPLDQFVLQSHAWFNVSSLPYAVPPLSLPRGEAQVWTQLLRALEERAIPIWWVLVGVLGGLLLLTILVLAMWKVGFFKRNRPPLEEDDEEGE
# PROCEDURE TEXT: Inhibition of fibrinogen binding to integrin alphaIIb-beta3
Classify: 1.0 when IC50 is strictly less than 0.2 nM; 0.0 when IC50 is not.

- MOLECULE: "N=C(N)NCc1cccc(-c2ccc(C(=O)NC[C@H](NS(=O)(=O)c3ccccc3)C(=O)O)s2)c1.O=C(O)C(F)(F)F"
  ASSIGNED CLASS: 0.0
- MOLECULE: "Cc1cc(C)c(S(=O)(=O)N[C@@H](CNC(=O)c2ccc(-c3cccc(NC(=N)N)c3)s2)C(=O)O)c(C)c1"
  ASSIGNED CLASS: 0.0
- MOLECULE: "N=C(N)Nc1ccc(-c2ccc(C(=O)NC[C@H](NS(=O)(=O)c3ccccc3)C(=O)O)s2)cc1"
  ASSIGNED CLASS: 1.0
- MOLECULE: "N=C(N)NCc1ccccc1-c1ccc(C(=O)NC[C@H](NS(=O)(=O)c2ccccc2)C(=O)O)s1"
  ASSIGNED CLASS: 1.0
- MOLECULE: "N=C(N)Nc1cccc(-c2ccc(C(=O)NC[C@H](NS(=O)(=O)c3ccccc3)C(=O)O)s2)c1.O=C(O)C(F)(F)F"
  ASSIGNED CLASS: 0.0
- MOLECULE: "N=C(N)NCc1ccc(-c2ccc(C(=O)NC[C@H](NS(=O)(=O)c3ccccc3)C(=O)O)s2)cc1"
  ASSIGNED CLASS: 0.0
- MOLECULE: "N=C(N)Nc1ccccc1-c1ccc(C(=O)NC[C@H](NS(=O)(=O)c2ccccc2)C(=O)O)s1"
  ASSIGNED CLASS: 0.0
- MOLECULE: "Cc1cc(C)c(S(=O)(=O)N[C@@H](CNC(=O)c2ccc(-c3cccc(CN=C(N)N)c3)s2)C(=O)O)c(C)c1.O=C(O)C(F)(F)F"
  ASSIGNED CLASS: 1.0
